Recorded log10 of EC50 for the following compounds
Test system: HCV 1a-H77 subgenomic replicon
Experiment: microbe, parasite or virus in culture
Format: cell-based, HCV genotype 1a
Details: Hepatitis C virus, stable replicon, strain 1a H77, 5% FBS; read-out: 1a H77 5% FBS EC50
MEASURED PARAMETER: log10 of EC50 (log10 of the value in nM)

INSERT INTO assay_data (compound, measured_parameter, endpoint_value) VALUES
  ('CS(=O)(=O)N(CCc1ccccc1)c1cc2oc(-c3ccc(F)cc3)c(-c3ncc[nH]3)c2cc1C1CC1 [Example 35]', 'log10 of EC50', 2.01),
  ('CCN(c1cc2oc(-c3ccc(F)cc3)c(-c3ncc[nH]3)c2cc1C1CC1)S(C)(=O)=O [Example 56]', 'log10 of EC50', 1.44),
  ('CS(=O)(=O)N(CCCCC(F)=C(F)F)c1cc2oc(-c3ccc(F)cc3)c(C3=NOCCN3)c2cc1C1CC1 [Example 120]', 'log10 of EC50', 1.24),
  ('CCOC(=O)CCCN(c1cc2oc(-c3ccc(F)cc3)c(C3=NOCCN3)c2cc1C1CC1)S(C)(=O)=O [Example 121]', 'log10 of EC50', 1.59),
  ('CS(=O)(=O)N(CCCc1nsc(=O)[nH]1)c1cc2oc(-c3ccc(F)cc3)c(C3=NOCCN3)c2cc1C1CC1 [Example 184]', 'log10 of EC50', 1.84),
  ('CS(=O)(=O)N(CCCOc1ccccc1)c1cc2oc(-c3ccc(F)cc3)c(-c3ncc[nH]3)c2cc1C1CC1 [Example 37]', 'log10 of EC50', 2.54),
  ('CS(=O)(=O)N(CCCc1noc(=S)[nH]1)c1cc2oc(-c3ccc(F)cc3)c(-c3ncc[nH]3)c2cc1C1CC1 [Example 177]', 'log10 of EC50', 1.51);
